B1: Zinc finger MYM-type protein 2, residues 463 to 506; numbered along this chain, Q9UBW7 (parent)
chain: IMNCCEQCGEYLPSKGAGNNVLVIDGQQKRFCCQSCVSEYKQVG

Variants of: B1
methodNotes: abundance fitness (aPCA) (normalised: wild type 0, dead -1); higher = more abundant; growth selection in yeast, the domain comes from the species named
conditionParameters: Homo sapiens
Criterion: abundance fitness meeting or surpassing -0.3. Met: true. Not met: false.

Incoming: Could you tell me if the measured abundance fitness of IMNCCEQHGEYLPSKGAGNNVLVIDGQQKRFCCQSCVSEYKQVG [C8H] reaches -0.3 or more?
Outgoing: true

Incoming: # check: abundance fitness of IMNCCEQCGEYLPSKGCGNNVLVIDGQQKRFCCQSCVSEYKQVG [A17C] is greater than or equal to -0.3
Outgoing: true

Incoming: Reported abundance fitness reaches at least -0.3 for IMNCCEQCGEYLPSKGAGNNPLVIDGQQKRFCCQSCVSEYKQVG [V21P] ?
Outgoing: false

Incoming: Item IKNCCEQCGEYLPSKGAGNNVLVIDGQQKRFCCQSCVSEYKQVG [M2K] with abundance fitness of -0.3 or above?
Outgoing: true

Incoming: Hello, I need to know if IMNCCEQCGEYLPSKGAGNNVLVIDGQQKRFLCQSCVSEYKQVG [C32L] has measured abundance fitness not below -0.3. Thanks!
Outgoing: false

Incoming: Check the entry IMNCCEQCGEYLPYKGAGNNVLVIDGQQKRFCCQSCVSEYKQVG [S14Y] : does abundance fitness equal or exceed -0.3?
Outgoing: false

Incoming: hey, is abundance fitness for this one >= -0.3? IMNCCEQCGEYLPSKGAGNNVLVIDGQQKRFCCQSCVWEYKQVG [S38W]
Outgoing: true

Incoming: Could you verify whether the entry IMNCCEQCGEYLQSKGAGNNVLVIDGQQKRFCCQSCVSEYKQVG [P13Q] shows abundance fitness of no less than -0.3?
Outgoing: true

Incoming: Is reported abundance fitness greater than or equal to -0.3 here: IMNCCEQCGEYLPSKGAGNNVLAIDGQQKRFCCQSCVSEYKQVG [V23A]
Outgoing: true

Incoming: Decide: abundance fitness of IMNCCEQCGEYWPSKGAGNNVLVIDGQQKRFCCQSCVSEYKQVG [L12W] >= -0.3?
Outgoing: false

Incoming: Given IMNPCEQCGEYLPSKGAGNNVLVIDGQQKRFCCQSCVSEYKQVG [C4P] , state whether its abundance fitness is at least -0.3.
Outgoing: true

Incoming: Identify whether the reported abundance fitness of the following variant is -0.3 or greater: IMNCCEQCGEYLPSKGAGNNVLVIDGQQKRGCCQSCVSEYKQVG [F31G]
Outgoing: true

Incoming: # bool: abundance fitness of IMNCCEQCGEYLPSKGAGNNVLVIDGQQKRHCCQSCVSEYKQVG [F31H] >= -0.3
Outgoing: true

Incoming: Quick check, abundance fitness >= -0.3? IMNCCEQCGEYLPSKGAGNNVLVIDGQQTRFCCQSCVSEYKQVG [K29T]
Outgoing: false

Incoming: Decide: is the reported value of abundance fitness for IMSCCEQCGEYLPSKGAGNNVLVIDGQQKRFCCQSCVSEYKQVG [N3S] equal to or greater than -0.3?
Outgoing: true

Incoming: Would you say IMNCCEQCDEYLPSKGAGNNVLVIDGQQKRFCCQSCVSEYKQVG [G9D] shows abundance fitness at minimum -0.3?
Outgoing: false

Incoming: Decide: abundance fitness of IMNCCEQCGEYLPSKGAGNNVLVILGQQKRFCCQSCVSEYKQVG [D25L] >= -0.3?
Outgoing: false

Incoming: Confirm if abundance fitness reported for the variant IMNCCEQCGEYLPGKGAGNNVLVIDGQQKRFCCQSCVSEYKQVG [S14G] is -0.3 or above.
Outgoing: true

Incoming: Kindly determine if abundance fitness recorded for IMNCCEQCGEYLPSKGPGNNVLVIDGQQKRFCCQSCVSEYKQVG [A17P] is above or exactly -0.3.
Outgoing: true

Incoming: Determine whether this variant has abundance fitness no lower than -0.3: IMNCCEQCGEYLPSKGAGNNVLVIDGQQKRFCCQSCVSEYKQVW [G44W]
Outgoing: true

Incoming: In plain terms: is recorded abundance fitness at least -0.3 for TMNCCEQCGEYLPSKGAGNNVLVIDGQQKRFCCQSCVSEYKQVG [I1T] ?
Outgoing: true
